test: Cytotoxicity against African green monkey Vero cells assessed as reduction in cell viability after 48 hrs by Alamar blue assay; assay type: toxicity, cell-based; settings: chlorocebus sabaeus
Listing: CC50 at 48 h of selected molecules
MEASURED ATTRIBUTE: CC50 at 48 h

1) CC(C)C(=O)c1c(O)cc(O)c2c1O[C@@]1(C)CC[C@@H](C(C)(C)O)[C@@H]2[C@H]1O > 500 µM
2) CC(C)C(=O)c1c(O)cc(O)c(C[C@H]2[C@H](C(C)(C)O)CC[C@@]2(C)O)c1O > 300 µM
3) CC(C)C(=O)c1c(O)cc(O)c2c1O[C@@]1(C)CC[C@H](C(C)(C)O)O[C@H]1C2 141 µM
4) CC(C)C(=O)c1c(O)cc(O)c(C[C@@H]2[C@@H](C(C)(C)O)CC[C@]2(C)O)c1O > 300 µM
5) CC(C)C(=O)c1c(O)cc(O)c2c1O[C@]1(C)CC[C@H](C(C)(C)O)[C@H]2[C@@H]1O > 500 µM
6) CC(C)C(=O)c1c(O)cc(O)c2c1OC(C)(C)[C@@H]1CC[C@@](C)(O)[C@H]1C2 > 300 µM
7) CC(C)C(=O)c1c(O)cc(O)c2c1O[C@]1(C)CC[C@@H](C(C)(C)O)O[C@@H]1C2 174 µM
8) CC(C)C(=O)c1c(O)cc(O)c2c1OC(C)(C)[C@H]1CC[C@](C)(O)[C@@H]1C2 221 µM
